Molecular target: fat mass and obesity-associated protein (FTO) (Homo sapiens)
Sequence (Q9C0B1 whole entry): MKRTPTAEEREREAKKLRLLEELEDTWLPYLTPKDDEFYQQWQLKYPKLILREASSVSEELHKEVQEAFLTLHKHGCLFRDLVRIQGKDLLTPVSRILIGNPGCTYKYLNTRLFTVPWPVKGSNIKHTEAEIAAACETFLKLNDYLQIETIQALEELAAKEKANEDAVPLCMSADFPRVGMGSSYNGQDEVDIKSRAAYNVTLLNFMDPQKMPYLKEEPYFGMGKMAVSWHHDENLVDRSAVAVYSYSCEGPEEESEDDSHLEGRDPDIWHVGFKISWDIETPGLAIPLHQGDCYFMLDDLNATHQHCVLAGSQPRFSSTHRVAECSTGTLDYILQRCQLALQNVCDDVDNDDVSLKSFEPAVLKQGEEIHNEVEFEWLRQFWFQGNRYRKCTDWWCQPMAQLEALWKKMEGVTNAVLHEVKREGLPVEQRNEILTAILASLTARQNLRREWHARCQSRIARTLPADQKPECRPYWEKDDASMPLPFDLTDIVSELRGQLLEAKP
measurement type: pKd
Give only the number. pKd is defined as minus log10 of concentration in molar units.

Qu. Give its pKd value. Item: C/C(=C\C(=O)OCCCCCCCCC(=O)O)C[C@@H]1OC[C@H](C[C@@H]2O[C@H]2[C@@H](C)[C@H](C)O)[C@@H](O)[C@H]1O
Ans. 5.44
